B1: tRNA (parent)
chain: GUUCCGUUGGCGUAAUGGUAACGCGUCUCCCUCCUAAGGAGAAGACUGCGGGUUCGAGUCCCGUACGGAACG

Variants of: B1
assayComment: yeast fitness relative to wild type (ratio to wild type); higher = fitter; tRNA-Arg(CCU), competitive growth, 37 C, YPD
This sample holds only a part of the variants without activity.
measurementType: yeast fitness
Reply with just the number.

In the examples that follow, each entry is paired with its recorded yeast fitness.
> print(dat)
                              sequenceinput  measvalue
1  GGUCCGUUAGCGUAAUGGUAACGCGUCUCCCUCCUAAGGAGAAGACUGCGGGUUCGAGUCCCGUACGGAACG [U2G G9A]       1.01
2  GUUCCGUUGGCGUAAUGGUAACGCGUCUCCCUCCUAAAGAGAAGACUGCGGGUUCGAGUUCCGUACGGAACG [G38A C60U]      0.831
3  GUUCGGUUGGCGUAAUGGUAACGCGUCUCCCUCCUAAGGAGAAGACUGCGGGUUCGAGUCCCGUAAGGUACG [C5G C66A A69U]      0.574
4  GUUCCGUUCGCGUAAUGGUAACGCGUCUCCCUCCUAACGAGAAGACUCCGGGUUCGAGUCCCGUACGGAACG [G9C G38C G48C]      0.582

So for GUUGCGGUGGCGUAAUGGUAACGCGUCUCCCUCCUAAGGAGAAGACUGCGGGUUCGAGUCCCCUACGGAACG [C4G U7G G63C] , the logged yeast fitness turned out to be 0.521
